This collection of values is drawn from ChEMBL document CHEMBL1697781.

system: Hepatotoxicity; test: FDA HLAED, serum glutamic pyruvic transaminase (SGPT) increase; settings: human
measuredParameter: SGPT Increase - Index Value
// return a plain number; no unit text

As a guide, the following entries are already answered.
>  <compound>
C[C@H](CCC(=O)O)[C@H]1CC[C@H]2[C@@H]3[C@@H](O)C[C@@H]4C[C@H](O)CC[C@]4(C)[C@H]3CC[C@]12C

>  <reported>
4.8

$$$$
>  <compound>
Cc1ccccc1N1CCN(CCc2nnc3n2CCCC3)CC1

>  <reported>
0

$$$$
>  <compound>
CN(C)c1nc(N(C)C)nc(N(C)C)n1

>  <reported>
0

$$$$
>  <compound>
CC(=O)O[C@H]1C[C@@H]2CC[C@@H]3[C@H](CC[C@@]4(C)[C@H]3C[C@H](N3CC[N+](C)(C)CC3)[C@@H]4OC(C)=O)[C@@]2(C)C[C@@H]1N1CC[N+](C)(C)CC1.[Br-].[Br-] [PIPECURONIUM BROMIDE]

>  <reported>
0

$$$$
>  <compound>
CCCCc1oc2ccccc2c1C(=O)c1cc(I)c(OCCN(CC)CC)c(I)c1

>  <reported>
0

$$$$

Entry C[C@]12CC[C@H]3[C@@H](CCC4=CC(=O)CC[C@@]43C)[C@@H]1CC[C@@H]2OC(=O)Cc1ccccc1 [TESTOSTERONE PHENYLACETATE] , system Hepatotoxicity: what SGPT Increase - Index Value was measured?
7.2

Follow-up entry: CC(C)NCC(O)COc1ccc(CCOCC2CC2)cc1 (configuration not stated)
0

What about this compound? CN1CCCC(n2nc(Cc3ccc(Cl)cc3)c3ccccc3c2=O)CC1 (configuration not stated)
0

Check Clc1ccc(CCC(Cn2ccnc2)Sc2c(Cl)cccc2Cl)cc1 (configuration not stated) too.
0.2

Ok, now N#Cc1cc(NC(=O)C(=O)O)c(Cl)c(NC(=O)C(=O)O)c1 [LODOXAMIDE]
0

Please answer likewise for CCN[C@H]1C[C@H](C)S(=O)(=O)c2sc(S(N)(=O)=O)cc21 [DORZOLAMIDE]
0.1

Field entry: CCCCCCCCCC(=O)CC(=O)O[C@H]1CC[C@H]2[C@@H]3CCC4=CC(=O)CC[C@]4(C)[C@H]3CC[C@]12C [TESTOSTERONE KETOLAURATE]
7.2

Try this compound too: CCCCNc1cc(C(=O)O)cc(S(N)(=O)=O)c1Oc1ccccc1 [BUMETANIDE]
0

Consider next the compound CNC(=C[N+](=O)[O-])NCCSCc1csc(CN(C)C)n1 in the same way.
2.4

* * *

system: Hepatotoxicity; assay: FDA HLAED, serum glutamic oxaloacetic transaminase (SGOT) increase; settings: human
measuredParameter: SGOT Increase - Activity Score

Observe how each entry below is paired with its result.
>  <molecule>
CC[C@H]1OC(=O)[C@H](C)[C@@H](O[C@H]2C[C@@](C)(OC)[C@@H](O)[C@H](C)O2)[C@H](C)[C@@H](O[C@@H]2O[C@H](C)C[C@H](N(C)C)[C@H]2O)[C@](C)(O)C[C@@H](C)CN(C)[C@H](C)[C@@H](O)[C@]1(C)O

>  <reported>
Inactive

$$$$
>  <molecule>
OC(c1cc(C(F)(F)F)nc2c(C(F)(F)F)cccc12)C1CCCCN1 (configuration not stated)

>  <reported>
Active

$$$$
>  <molecule>
NC(=O)OCC(COC(N)=O)c1ccccc1 [FELBAMATE]

>  <reported>
Active

$$$$
>  <molecule>
Cn1nnnc1SCC1=C(C(=O)[O-])N2C(=O)[C@@H](NC(=O)[C@H](OC=O)c3ccccc3)[C@H]2SC1.[Na+] [CEFAMANDOLE NAFATE]

>  <reported>
Inactive

$$$$
>  <molecule>
COc1ccccc1OCCNCC(O)COc1cccc2[nH]c3ccccc3c12 (configuration not stated)

>  <reported>
Inactive

$$$$
>  <molecule>
CC(=O)OCC(=O)[C@@]12OC3(CCCC3)O[C@@H]1C[C@H]1[C@@H]3CCC4=CC(=O)C=C[C@]4(C)[C@@]3(F)[C@@H](O)C[C@@]12C [AMCINONIDE]

>  <reported>
Inactive

$$$$

Next up:
Please give the measured SGOT Increase - Activity Score for this molecule: CN1CCCC(n2nc(Cc3ccc(Cl)cc3)c3ccccc3c2=O)CC1 (configuration not stated)
Inactive

* * *

test system: Hepatotoxicity; experiment: FDA HLAED, serum glutamic oxaloacetic transaminase (SGOT) increase; settings: human
measuredParameter: SGOT Increase - Number of Reports

>  <molecule>
C[C@]12CC[C@@H]3c4ccc(O)cc4CC[C@H]3[C@@H]1CC[C@@H]2OC(=O)CCC1CCCC1 [ESTRADIOL CYPIONATE]

>  <SGOT Increase - Number of Reports>
>= 4

$$$$
>  <molecule>
CC1=C(C(=O)O)N2C(=O)[C@@H](NC(=O)[C@H](N)c3ccc(O)cc3)[C@H]2SC1

>  <SGOT Increase - Number of Reports>
< 4

$$$$
>  <molecule>
Cc1nccn1CC1CCc2c(c3ccccc3n2C)C1=O (configuration not stated)

>  <SGOT Increase - Number of Reports>
>= 4

$$$$
>  <molecule>
CC(Cc1ccc(O)c(O)c1)C(C)Cc1ccc(O)c(O)c1 (configuration not stated) [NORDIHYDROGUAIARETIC ACID]

>  <SGOT Increase - Number of Reports>
< 4

$$$$
>  <molecule>
Oc1ncnc2[nH]ncc12

>  <SGOT Increase - Number of Reports>
>= 4

$$$$

Now take the following molecule into account.
Tell me the measured SGOT Increase - Number of Reports of CC(C(=O)O)c1ccc(-c2ccccc2)c(F)c1 (configuration not stated) , please.
>= 4

* * *

system: Hepatotoxicity; experiment: FDA HLAED, liver enzyme composite activity; settings: human
measuredParameter: Composite Activity - Score

>  <molecule>
COc1ccc(OC)c(C(O)CNC(=O)CN)c1 (configuration not stated) [MIDODRINE]

>  <reported>
Inactive

$$$$
>  <molecule>
CC(C)(C)NC(=O)[C@@H]1CN(Cc2cccnc2)CCN1C[C@@H](O)C[C@@H](Cc1ccccc1)C(=O)N[C@H]1c2ccccc2C[C@H]1O.O

>  <reported>
Active

$$$$
>  <molecule>
C/C(=C\C(=O)OCCCCCCCCC(=O)O)C[C@@H]1OC[C@H](C[C@@H]2O[C@H]2[C@@H](C)[C@H](C)O)[C@@H](O)[C@H]1O [MUPIROCIN]

>  <reported>
Inactive

$$$$
>  <molecule>
Nc1ccn([C@@H]2CS[C@H](CO)O2)c(=O)n1 [LAMIVUDINE]

>  <reported>
Active

$$$$
>  <molecule>
CC[C@H]1OC(=O)[C@H](C)[C@@H](O[C@H]2C[C@@](C)(OC)[C@@H](O)[C@H](C)O2)[C@H](C)[C@@H](O[C@@H]2O[C@H](C)C[C@H](N(C)C)[C@H]2O)[C@](C)(O)C[C@@H](C)CN(C)[C@H](C)[C@@H](O)[C@]1(C)O [AZITHROMYCIN]

>  <reported>
Inactive

$$$$

I am curious: what Composite Activity - Score value has been reported for CCCCNc1cc(C(=O)O)cc(S(N)(=O)=O)c1Oc1ccccc1 [BUMETANIDE] ?
Inactive

Moving on to COc1ccc(Cl)cc1C(=O)NCCc1ccc(S(=O)(=O)NC(=O)NC2CCCCC2)cc1 [GLYBURIDE]
Inactive

* * *

test system: Hepatotoxicity; experiment: FDA HLAED, lactate dehydrogenase (LDH) increase; conditions: human
measuredParameter: LDH Increase - Number of Reports

Please review the following examples before continuing.
>  <compound>
CCOC(=O)N1CCC(=C2c3ccc(Cl)cc3CCc3cccnc32)CC1 [LORATADINE]

>  <LDH Increase - Number of Reports>
< 4

$$$$
>  <compound>
CN(C)C(=N)N=C(N)N [METFORMIN]

>  <LDH Increase - Number of Reports>
< 4

$$$$
>  <compound>
Clc1ccc(C(Cn2ccnc2)OCc2ccsc2Cl)c(Cl)c1 (stereo not given) [TIOCONAZOLE]

>  <LDH Increase - Number of Reports>
< 4

$$$$
>  <compound>
Nc1ccn([C@@H]2CS[C@H](CO)O2)c(=O)n1 [LAMIVUDINE]

>  <LDH Increase - Number of Reports>
>= 4

$$$$

Here's the next entry for you.
Requested read-out LDH Increase - Number of Reports, target or system Hepatotoxicity, entry C[C@H]1C[C@H]2[C@@H]3C[C@H](F)C4=CC(=O)C=C[C@]4(C)[C@@]3(F)[C@@H](O)C[C@]2(C)[C@@]1(O)C(=O)CCl [HALOBETASOL]
< 4

* * *

Measured GGT Increase - Index Value accompanies every entry in the list below.
tested on: Hepatotoxicity; assay: FDA HLAED, gamma-glutamyl transferase (GGT) increase; details: human
Field format: numeric only.

Example entries begin here.
>  <compound>
NC(=O)N1c2ccccc2C=Cc2ccccc21 [CARBAMAZEPINE]

>  <GGT Increase - Index Value>
4.4

$$$$
>  <compound>
CC(C)c1c(C(=O)Nc2ccccc2)c(-c2ccccc2)c(-c2ccc(F)cc2)n1CC[C@@H](O)C[C@@H](O)CC(=O)O [ATORVASTATIN]

>  <GGT Increase - Index Value>
6.2

$$$$
>  <compound>
CO[C@@]1(NC(=O)C2SC(=C(C(N)=O)C(=O)O)S2)C(=O)N2C(C(=O)O)=C(CSc3nnnn3C)CS[C@@H]21 (stereo partly drawn) [CEFOTETAN]

>  <GGT Increase - Index Value>
0

$$$$
>  <compound>
CC(C)(C)NC[C@H](O)COc1ccccc1C1CCCC1 [PENBUTOLOL]

>  <GGT Increase - Index Value>
0

$$$$
>  <compound>
Clc1ccc2nsnc2c1NC1=NCCN1 [TIZANIDINE]

>  <GGT Increase - Index Value>
8.3

$$$$

Quick check: GGT Increase - Index Value on Hepatotoxicity, item CC(C)(C)NCC(O)COc1cccc2c1CCC(=O)N2 (stereo not drawn) [CARTEOLOL] ?
0

Subsequent entry: Nc1cc(N2CCCCC2)nc(N)[n+]1[O-] [MINOXIDIL]
0.3

Entry CC[C@H]1OC(=O)[C@H](C)[C@@H](O[C@H]2C[C@@](C)(OC)[C@@H](O)[C@H](C)O2)[C@H](C)[C@@H](O[C@@H]2O[C@H](C)C[C@H](N(C)C)[C@H]2O)[C@](C)(O)C[C@@H](C)CN(C)[C@H](C)[C@@H](O)[C@]1(C)O [AZITHROMYCIN] please
1

And the next one, COC(=O)C1=C(C)NC(C)=C(C(=O)OC(C)C)C1c1cccc2nonc12 (stereo not drawn) [ISRADIPINE] ?
0.2

And then COc1ccc(C(CN(C)C)C2(O)CCCCC2)cc1 (stereo not drawn) [VENLAFAXINE] , what is it?
0.9

Now this one: CNC(=C[N+](=O)[O-])NCCSCc1ccc(CN(C)C)o1 [RANITIDINE]
0

Here is the next compound: CC(C)(C)c1ccc(C(O)CCCN2CCC(C(O)(c3ccccc3)c3ccccc3)CC2)cc1 (stereo not drawn) [TERFENADINE]
0.1

And C[C@@H]1CN(c2c(F)c(N)c3c(=O)c(C(=O)O)cn(C4CC4)c3c2F)C[C@H](C)N1 [SPARFLOXACIN] ?
0

What do you have for C[C@@H]1C[C@H]2[C@@H]3C[C@H](F)C4=CC(=O)C=C[C@]4(C)[C@@]3(F)[C@@H](O)C[C@]2(C)[C@@]1(O)C(=O)SCF [FLUTICASONE] ?
0
